target: Lethal factor protease (Bacillus anthracis, UniProt P15917)
Sequence (P15917 34-809 limits assumed): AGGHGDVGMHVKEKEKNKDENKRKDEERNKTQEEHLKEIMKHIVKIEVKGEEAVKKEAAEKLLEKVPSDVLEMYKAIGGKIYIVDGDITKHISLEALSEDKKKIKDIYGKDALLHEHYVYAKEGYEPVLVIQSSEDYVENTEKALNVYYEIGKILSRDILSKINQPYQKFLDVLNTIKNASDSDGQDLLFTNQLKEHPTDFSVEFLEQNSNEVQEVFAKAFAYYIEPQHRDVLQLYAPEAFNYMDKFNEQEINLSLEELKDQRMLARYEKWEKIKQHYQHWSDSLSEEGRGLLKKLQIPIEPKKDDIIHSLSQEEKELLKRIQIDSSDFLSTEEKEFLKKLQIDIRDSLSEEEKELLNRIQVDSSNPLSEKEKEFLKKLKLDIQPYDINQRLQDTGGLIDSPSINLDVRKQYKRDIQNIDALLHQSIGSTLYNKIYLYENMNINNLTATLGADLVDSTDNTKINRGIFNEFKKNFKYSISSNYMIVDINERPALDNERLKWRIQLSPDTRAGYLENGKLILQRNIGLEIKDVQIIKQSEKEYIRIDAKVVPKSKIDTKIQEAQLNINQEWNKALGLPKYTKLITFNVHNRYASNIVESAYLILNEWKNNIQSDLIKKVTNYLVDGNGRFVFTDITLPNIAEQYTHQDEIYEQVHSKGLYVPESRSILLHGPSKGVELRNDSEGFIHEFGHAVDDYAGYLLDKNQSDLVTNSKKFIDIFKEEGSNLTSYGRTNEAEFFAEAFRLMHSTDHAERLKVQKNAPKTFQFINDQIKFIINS
pKi: −log10 of the molar value.
Mark Met for reported pKi of 6 or greater; mark Not met for anything smaller.

Answered cases to consult:
[
  {
    "compound": "CCC[C@@H](Nc1cc(C)c(F)c(C)c1)C(=O)NO",
    "assigned_class": "Met"
  },
  {
    "compound": "Cc1cc(N[C@H](CCCCn2c(C)ccc2C)C(=O)NO)cc(C)c1F",
    "assigned_class": "Not met"
  },
  {
    "compound": "Cc1cc(N[C@H](Cc2ccccc2)C(=O)NO)cc(C)c1F",
    "assigned_class": "Not met"
  },
  {
    "compound": "Cc1cc(CNCCCC[C@@H](Nc2ccc(F)c(C)c2)C(=O)NO)ccc1F",
    "assigned_class": "Met"
  },
  {
    "compound": "Cc1cc(N[C@H](CCc2ccccc2)C(=O)NO)cc(C)c1F",
    "assigned_class": "Met"
  }
]

In: Does pKi meet or surpass 6 for CCCCC(Nc1cc(C)cc(Br)c1)C(=O)NO (centres unmarked) ?
Out: Not met

In: Hi team, for Cc1cc(N[C@H](CCCCNCc2ccc(F)cc2)C(=O)NO)ccc1F , is the recorded pKi at or above 6?
Out: Met

In: hey, is pKi for this one >= 6? Cc1cc(N[C@H](CO)C(=O)NO)cc(C)c1F
Out: Met
